# test summary: physchem
# stated conditions: buffer, pH 7.4
Consider the cut-off 1. If the recorded logD is strictly smaller, the label is class 1; if not, the label is class 0.

C[C@H]1[C@H](O)CN1c1nc(N2C[C@@H]3[C@@H](CC(=O)O)[C@@H]3C2)cc(C(F)(F)F)n1	class 1

*Q* State whether 1 exceeds logD recorded for C[C@]1(O)CCN(c2nc(N3C[C@H](O)[C@@H](O)C3)cc(C(F)(F)F)c2C#N)C1 .
*A* class 0

*Q* State whether 1 exceeds logD recorded for C[C@H]1[C@H](O)CN1c1nc(N2C[C@@H]3[C@@H](CO)[C@@H]3C2)cc(C(F)(F)F)c1C#N .
*A* class 0

*Q* State whether 1 exceeds logD recorded for C[C@H]1[C@H](O)CN1c1nc(N2C[C@@H]3[C@H](C2)[C@H]3C(=O)O)cc(C(F)(F)F)c1C#N .
*A* class 1

----------
# test summary: in vitro
# stated conditions: human, liver microsomes
property measured: microsomal CLint

C[C@H]1[C@H](O)CN1c1nc(N2C[C@@H]3[C@@H](CC(=O)O)[C@@H]3C2)cc(C(F)(F)F)c1C#N	< 11 µL/min/mg

Kindly note the recorded microsomal CLint for C[C@]1(O)CCN(c2nc(N3C[C@H](O)[C@@H](O)C3)cc(C(F)(F)F)c2C#N)C1 , which is < 13 µL/min/mg
